target: UP1 (UniProt P09651-2 1-196); experiment: ITC; 100 mM NaCl; ITC/CD: 20 mM Tris-Cl pH 8, 100 mM NaCl or KCl, 25 C; NMR: 10 mM sodium or potassium phosphate pH 6.5, 100 mM NaCl or KCl, 298 K; details: protein: recombinant; tags: C-terminal 6xHis (pET28a); chain copies: 2; intramolecular G4 (monomeric)
Sequence (P09651 1-196): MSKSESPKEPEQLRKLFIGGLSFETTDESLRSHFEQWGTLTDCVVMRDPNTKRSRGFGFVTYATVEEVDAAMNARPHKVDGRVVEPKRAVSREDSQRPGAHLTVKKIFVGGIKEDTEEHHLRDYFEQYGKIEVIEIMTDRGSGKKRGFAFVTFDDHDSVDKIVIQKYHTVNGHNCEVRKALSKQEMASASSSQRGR
TEST_READOUT: Kd
Record the result as number plus unit.

Task item: Field request: Kd | item: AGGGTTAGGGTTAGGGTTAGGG (structured_DNA) [Tel22 G-quadruplex]
Reply: 710 nM
